Tested on: PBMC cells obtained from mite allergic patients and non-allergics
Assay: Ex vivo stimulation of PBMC: cytokine production (IFN-gamma, IL-9, IL-10, IL-17, IL-31)
Format: cell-based, human
Conditions: non-allergic individuals; IL-31
Method: This example relates to the further testing of immunogenicity of the proteins identified in Example 1. […] T cell reactivity was. • Ex vivo stimulation of PBMC cells obtained from mite allergic patients (n=16) and non-allergics (n=6): Determined by measuring the production of the cytokines; IFN-gamma, IL-9, IL-10, IL-17 and IL-31 following stimulation with test protein in concentration up to 10 ug/ml. […]
Each entry below carries its reported % non-allergic individuals with cytokine production in ex-vivo T cell assay IL-31.
Experimental Endpoint: % non-allergic individuals with cytokine production in ex-vivo T cell assay IL-31

- Molecule: "A016: house dust mite protein; SEQ ID NO: 28 (Der f), 29 (Der p) (protein) MVKIGINGFGRIGRLVLRAAIKKGVEVAAINDPFLDVKYMVYMFKFDSTHGRYQGEVKEEGGLLVVDGQKIQVFQERNPAEIPWGKVGADYVVESTGVFTTIEKAKAHLAGGAKKVIISAPSADAPMYVMGVNHDKYDPKQQIISNASCTTNCLAPLAKVINDKFGIENGLMTTVHAITATQKTVDGPSGKLWRDGRGAGQNIIPASTGAAKAVGKVIPELNGKLTGMALRVPVPDVSVVDLTVTLKNPASYDEIKAAVKAAAESDHWKGILEYTDEEVVSSDFISDTHSSIFDAKAGIALTPTFVKLIAWYDNEFGYSNRVVDLIKYVASK"
  Result: "0%"
- Molecule: "A003: house dust mite protein; SEQ ID NO: 2 (Der f), 3 (Der p), 305 (Blo t) (protein) MAIDGKYQMESSEHFEEFVKEMGLDVDMTNVDLSKTSTMEICKDGDVYHIKSETAGIAHEIKFKVGEEFEDDMNGHKFKNVVTMECDNKMVQKKTSADGGKVVNVVREFTDAGCTVKSTYNTVTWTRVYKRM"
  Result: "0%"
